# Experimental Target: Recombinant JAK3 (Homo sapiens, UniProt P52333)
# Construct: purchased Carna Biosciences
# Sequence (P52333 1-1124): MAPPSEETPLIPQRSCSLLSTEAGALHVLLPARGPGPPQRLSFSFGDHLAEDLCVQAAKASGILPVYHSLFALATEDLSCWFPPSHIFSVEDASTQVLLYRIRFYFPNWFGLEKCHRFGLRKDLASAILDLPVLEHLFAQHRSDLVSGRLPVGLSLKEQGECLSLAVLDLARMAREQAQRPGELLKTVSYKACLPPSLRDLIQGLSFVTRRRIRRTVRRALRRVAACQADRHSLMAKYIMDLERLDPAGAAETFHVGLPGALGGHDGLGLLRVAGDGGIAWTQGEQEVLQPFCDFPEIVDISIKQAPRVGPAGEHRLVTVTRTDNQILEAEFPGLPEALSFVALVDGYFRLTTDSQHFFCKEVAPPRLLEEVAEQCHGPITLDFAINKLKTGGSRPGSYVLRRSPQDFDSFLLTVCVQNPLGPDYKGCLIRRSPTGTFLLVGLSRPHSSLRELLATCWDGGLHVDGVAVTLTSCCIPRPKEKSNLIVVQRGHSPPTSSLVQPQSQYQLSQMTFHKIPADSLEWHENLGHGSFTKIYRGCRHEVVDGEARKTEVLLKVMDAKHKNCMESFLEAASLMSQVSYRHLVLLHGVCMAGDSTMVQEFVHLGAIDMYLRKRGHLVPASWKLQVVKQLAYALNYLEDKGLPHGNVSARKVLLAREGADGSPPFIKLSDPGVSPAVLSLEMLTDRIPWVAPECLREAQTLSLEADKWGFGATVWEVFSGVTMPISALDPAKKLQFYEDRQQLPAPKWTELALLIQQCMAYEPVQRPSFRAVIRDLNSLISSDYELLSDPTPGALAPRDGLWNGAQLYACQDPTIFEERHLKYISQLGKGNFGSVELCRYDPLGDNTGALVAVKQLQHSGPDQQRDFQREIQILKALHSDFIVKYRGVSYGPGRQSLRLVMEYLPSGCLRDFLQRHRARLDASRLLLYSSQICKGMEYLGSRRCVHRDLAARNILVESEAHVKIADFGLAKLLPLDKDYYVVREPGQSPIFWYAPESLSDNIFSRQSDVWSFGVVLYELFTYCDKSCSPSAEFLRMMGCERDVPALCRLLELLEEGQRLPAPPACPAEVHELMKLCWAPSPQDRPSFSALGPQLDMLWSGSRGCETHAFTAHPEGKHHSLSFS
# Run Description: JAK biochemical assay (LANCE Ultra TR-FRET), JAK3
# Settings: recombinant JAK3, TR-FRET; read-out: Biochemical Assay (μM) JAK3
Result Type: IC50

{"columns": ["Molecule", "Experimental Target", "IC50"],
 "data": [
  ["O=C1Cc2c(-c3cnn(C(=O)NCC(F)(F)F)c3)ccnc2N1 [Example 1045]", "Recombinant JAK3 (Homo sapiens, UniProt P52333)", "> 1 µM"],
  ["CC(C)N1CCC([C@@](O)(c2ccc(-n3cc(-c4ccnc5[nH]cnc45)cn3)nc2)C(F)(F)F)C1 (stereo partly drawn) [Example 1225]", "Recombinant JAK3 (Homo sapiens, UniProt P52333)", "0.018 µM"],
  ["OC(c1ccc(-n2cc(-c3ccnc4[nH]cnc34)cn2)nc1)C(F)(F)F (stereo not drawn) [Example 1169]", "Recombinant JAK3 (Homo sapiens, UniProt P52333)", "0.014 µM"],
  ["N#CC(c1ccc(-n2cc(-c3ccnc4[nH]cnc34)cn2)nc1)N1CCOCC1 (stereo not drawn) [Example 1112]", "Recombinant JAK3 (Homo sapiens, UniProt P52333)", "> 1 µM"],
  ["OCc1ccc(-n2cc(-c3ccnc4[nH]cnc34)cn2)nc1 [Example 1083]", "Recombinant JAK3 (Homo sapiens, UniProt P52333)", "< 0.5 µM"]
]}

Shift focus to the following entry.
*Q* Suppose we examine the molecule CCC(c1ccc(-n2cc(-c3ccnc4[nH]cnc34)cn2)nc1)C(F)(F)F (stereo not drawn) [Example 1122] ; what IC50 value has been reported?
*A* > 0.5 µM
